For each of the molecules below, state its spectral intensity of the compound in the SEC spin column filtrate (protein fraction).
- ASSAY_TARGET: FLJ20589 clone-derived protein (human hippocalcin-like protein 1, VILIP-3) (Homo sapiens)
- Construct: A human full-length cDNA clone was expressed as a protein with an N-terminal His tag; His tag (N); made in house; host or cells: Escherichia coli BL21star(DE3)pLysS (pDEST17 Gateway expression plasmid)
- ASSAY_SUMMARY: SEC/MS interaction analysis (size exclusion spin column and mass analysis) with FLJ20589 clone-derived protein
- Format: binding
- EXPERIMENTAL_CONDITIONS: protein 0 μM (protein-free reference), compound 1 μM
Answers are plain numbers.

{"MOLECULE": "CN1CCN(CCCN2c3ccccc3Sc3ccc(C(F)(F)F)cc32)CC1", "DATA_VALUE": 1499445}
{"MOLECULE": "O=C1CN=C(c2ccccc2)c2cc(Cl)ccc2N1CC1CC1", "DATA_VALUE": 563508}
{"MOLECULE": "c1ccc(-c2ccc(C(c3ccccc3)n3ccnc3)cc2)cc1 (stereo not shown)", "DATA_VALUE": 2704636}

Now consider a different molecule.
Recall and state the measured spectral intensity of the compound in the SEC spin column filtrate (protein fraction) for Fc1ccc(C(c2ccc(F)cc2)N2CCN(C/C=C/c3ccccc3)CC2)cc1 . 188851

---

Would you mind telling me the reported spectral intensity of the compound in the SEC spin column filtrate (protein fraction) of each entry?
- ASSAY_TARGET: FLJ39196 clone-derived protein (human neurocalcin δ) (Homo sapiens)
- Construct: A human full-length cDNA clone was expressed as a protein with an N-terminal His tag; His tag (N); made in house; host or cells: Escherichia coli BL21star(DE3)pLysS (pDEST17 Gateway expression plasmid)
- ASSAY_SUMMARY: SEC/MS interaction analysis (size exclusion spin column and mass analysis) with FLJ39196 clone-derived protein
- Format: binding
- EXPERIMENTAL_CONDITIONS: protein 23.75 μM, compound 1 μM
Structures can show the parent of a compound that is named as a salt.
Give bare numbers.

{"COMPOUND": "COC(=O)[C@H]1[C@H]2C[C@@H]3c4[nH]c5cc(OC)ccc5c4CCN3C[C@H]2C[C@@H](OC(=O)/C=C/c2cc(OC)c(OC)c(OC)c2)[C@@H]1OC", "DATA_VALUE": 11269941}
{"COMPOUND": "Cc1cc(-c2ccccc2)nnc1NCCN1CCOCC1", "DATA_VALUE": 10946604}

For each of the compounds below, state spectral intensity of the compound in the SEC spin column filtrate (protein fraction).
1. CC(C)COCC(CN(Cc1ccccc1)c1ccccc1)N1CCCC1 (stereo not drawn)
2. CC(NCCC(c1ccccc1)c1ccccc1)c1ccccc1 (stereo not drawn)
3. CC(O)(CS(=O)(=O)c1ccc(F)cc1)C(=O)Nc1ccc(C#N)c(C(F)(F)F)c1 (stereo not drawn) [Bicaltamide]
4. CCc1oc2ccccc2c1C(=O)c1cc(Br)c(O)c(Br)c1
5. O=C(c1ccc(OCCN2CCCCC2)cc1)c1c(-c2ccc(O)cc2)sc2cc(O)ccc12 [Raloxifene hydrochloride]

7408112
15884361
264437
357666
3790373

Hey, quick one: what's spectral intensity of the compound in the SEC spin column filtrate (protein fraction) for each of these?
1. Clc1ccc(C(OCCN2CCCCC2)c2ccccc2)cc1 (stereo not drawn)
2. NS(=O)(=O)c1cc2c(cc1Cl)N=C(CSCc1ccccc1)NS2(=O)=O [Benzthiazide]
3. CN(C)CC/C=C1/c2ccccc2Sc2ccc(Cl)cc21
4. O=C1CN=C(c2ccccc2)c2cc(Cl)ccc2N1CC1CC1
5. CC(C)[C@@]1(NC(=O)[C@@H]2C[C@@H]3c4cccc5[nH]cc(c45)C[C@H]3N(C)C2)O[C@@]2(O)[C@@H]3CCCN3C(=O)[C@H](Cc3ccccc3)N2C1=O [Dihydroergocristine]
6. C[C@]12Cc3c[nH]nc3C[C@@H]1CC[C@@H]1[C@@H]2CC[C@@]2(C)[C@H]1CC[C@]2(C)O
7. c1ccc(-c2ccc(C(c3ccccc3)n3ccnc3)cc2)cc1 (stereo not drawn)
8. CN1CCN(CCCN2c3ccccc3Sc3ccc(C(F)(F)F)cc32)CC1

1. 2972794
2. 361168
3. 21615977
4. 38417587
5. 68120944
6. 3620481
7. 27516354
8. 7580781
